- assay_remarks: Residual lipid level in liver of rats (UPLC-MS quantification)
- Assay type: in vivo
- run_parameters: rat, liver, iv, 0.2 mg/kg, 0.2 mpk, 0.5 h
quantity_measured: concentration at 0.5 h (ng/g)

CCCCCC=CCC=CCCCCCCCCC(CCCCCCCCC=CCC=CCCCCC)OC(=O)CCCN(C)C (centres unmarked) [MC3, reference compound] = 20500
CCCCCCCCCCCOC(=O)CCCCCN(CCO)CCCCCCCC(=O)OC(CCCCCCCC)CCCCCCCC = 16400

---

- assay_remarks: Residual lipid level in liver of rats (UPLC-MS quantification)
- Format: in vivo
- run_parameters: rat, liver, intravenous, 2 mg/kg, 2 mpk, 48 h, average of 3 rats, read-out: Liver level
quantity_measured: concentration at 48 h (ng/g)

A = CCCCCCCCCOC(=O)CCCCCCCN(CCO)CCCCCCCC(=O)OC(CCCCC)CCCCCCCC (centres unmarked)
B = CCCCCCCCC(CCCCCCCC)OC(=O)CCCCCCCN(CCO)CCCC(=O)OCCCCCC
C = CCCCCC=CCC=CCCCCCCCCC(CCCCCCCCC=CCC=CCCCCC)OC(=O)CCCN(C)C (centres unmarked) [MC3, reference compound]
D = CCCCCCCCC(CCCCCCCC)OC(=O)CCCCCCCN(CCO)CCCCCCCC(=O)OCC1CC1CCCCCC (centres unmarked)
*Q* List these items ordered by concentration at 48 h, big to small. Please reply with the labels ordered as requested. Many thanks.
*A* C, B, D, A
(C: 285000 ng/g, B: 47000 ng/g, D: 665 ng/g, A: 103 ng/g)

---

- assay_remarks: Residual lipid level in liver of rats (UPLC-MS quantification)
- Assay type: in vivo
- run_parameters: liver, 0.2 mg/kg; rat, intravenous, 0.2 mpk, 24 h
quantity_measured: concentration at 24 h (ng/g)
Enter your answer as a number in ng/g; do not include the unit.

*Q* Given the compound CCCCCCCCCOC(=O)CCCCCCCN(CCO)CCCCCCCC(=O)OC(CCCCCCCC)CCCCCCCC [Compound 18] , what is its reported concentration at 24 h?
*A* 5

---

- assay_remarks: Residual lipid level in spleen of rats (UPLC-MS quantification)
- Assay type: in vivo
- run_parameters: 0.2 mg/kg, rat, intravenous, 0.2 mpk, 4 h
quantity_measured: concentration at 4 h (ng/g)
Number only, in ng/g; omit the unit.

*Q* I am curious: what concentration at 4 h value has been reported for CCCCCCCCCOC(=O)CCCCCCCN(CCO)CCCCCCCC(=O)OC(CCCCCCCC)CCCCCCCC [Compound 18] ?
*A* 3770

---

- assay_remarks: Residual lipid level in spleen of rats (UPLC-MS quantification)
- Format: in vivo
- run_parameters: rat, iv, 0.2 mg/kg, 0.2 mpk, 24 h
quantity_measured: concentration at 24 h (ng/g)

1 = CCCCCCCCCCCOC(=O)CCCCCN(CCO)CCCCCCCC(=O)OC(CCCCCCCC)CCCCCCCC
2 = CCCCCC=CCC=CCCCCCCCCC(CCCCCCCCC=CCC=CCCCCC)OC(=O)CCCN(C)C (centres unmarked) [MC3, reference compound]
*Q* Select one. Lower concentration at 24 h: 1 or 2 Answer = label.
*A* 1

---

- assay_remarks: Residual lipid level in liver of rats (UPLC-MS quantification)
- Type: in vivo
- run_parameters: rat, liver, iv, 0.2 mg/kg, 0.2 mpk, 8 h
quantity_measured: concentration at 8 h (ng/g)

A = CCCCCCCCCCCOC(=O)CCCCCN(CCO)CCCCCCCC(=O)OC(CCCCCCCC)CCCCCCCC
B = CCCCCC=CCC=CCCCCCCCCC(CCCCCCCCC=CCC=CCCCCC)OC(=O)CCCN(C)C (centres unmarked) [MC3, reference compound]
*Q* Which shows the larger concentration at 8 h value: A or B ? Please respond with the label that marks your chosen entry.
*A* B
(B: 32600 ng/g, A: 2360 ng/g)

---

- assay_remarks: Residual lipid level in liver of rats (UPLC-MS quantification)
- Format: in vivo
- run_parameters: rat, 2 mpk, 48 h; assuming 300 g rat and 15 g liver
quantity_measured: % Lipid Remaining in liver, 48 h 2 mpk (%)

CCCCCCCCCOC(=O)CCCCCCCN(CCO)CCCCCCCC(=O)OC(CCCCCCCC)CCCCCCCC [Compound 18] = 0.018

I = CCCCCCCCCN(CCO)CCCCCCCC(=O)OC(CCCCCCCC)CCCCCCCC [Compound 3]
II = CCCCCCCCCOC(=O)CCCN(CCO)CCCCCCCC(=O)OC(CCCCCCCC)CCCCCCCC [Compound 26]
III = CCCCCC/C=C\COC(=O)CCCCCCCN(CCO)CCCCCCCC(=O)OC(CCCCCCCC)CCCCCCCC [Compound 24]
IV = CCCCCC=CCC=CCCCCCCCCC(CCCCCCCCC=CCC=CCCCCC)OC(=O)CCCN(C)C (stereo not drawn) [MC3, reference compound]
*Q* Hey, quick one: sort these by % Lipid Remaining in liver, 48 h 2 mpk, largest value first please. Returns: the labels listed in the requested order.
*A* IV, II, I, III

---

- assay_remarks: Encapsulation efficiency of RNA, QUANT-IT RIBOGREEN RNA assay
- Format: physicochemical
- run_parameters: Table 1A formulations
quantity_measured: EE (%)

CCCCCCCCC(CCCCCCCC)OC(=O)CCCCCCCN(CCO)CCCCCC(=O)OC(CCCCCCCC)C1CC1 (stereo not shown) = 98.2
CCCCCCCCCOC(=O)CCCCCCCN(CCCCCCCC(=O)OC(CCCCCCCC)CCCCCCCC)C(CO)CO = 98.90
CCCCCCCCCOC(=O)CCCCCCCN(CCO)CCCCCCCC(=O)OC(CCCCCCCC)CCCCCCCC = 97.50
CCCCCCCCC(CC)OC(=O)CCCCCN(CCO)CCCCCCCC(=O)OC(CCCCCCCC)CCCCCCCC (stereo not shown) = 98.1
CCCCCCCCCOC(=O)CCCCCCCN(CCCCCCCC(=O)OC(CCCCCCCC)CCCCCCCC)CCCN/C(=C/[N+](=O)[O-])NC = 98.24
CCCC/C=C\CCC(CC/C=C\CCCC)OC(=O)CCCCCCCN(CCO)CCCCCC(=O)OCCCCCCCCCCC = 97.2
CCCCCCCCC(CC)OC(=O)CCCCCCCN(CCO)CCCCCCCC(=O)OC(CCCCCCCC)CCCCCCCC (stereo not shown) = 96.86

---

- assay_remarks: Residual lipid level in spleen of rats (UPLC-MS quantification)
- Format: in vivo
- run_parameters: rat, iv, 2 mg/kg, 2 mpk, 48 hours, read-out: Spleen level
- Protocol: To pre-weighed tissues, Milli-Q water was added (900 μL water per 100 mg tissue). Tissues were homogenized using an Omni probe homogenizer until uniform. 50 μL of samples and matrix calibration standards were aliquoted into a 96-well plate. […] The expression of hEPO in rats intravenously administered a nanoparticle composition at a dose of 0.2 mpk or 2.0 mpk was measured at 6 hours. […] Liver and spleen levels represent the average values calculated for 3 rats in each group. […]
quantity_measured: concentration at 48 h

CCCCCCCCC(CCC)OC(=O)CCCCCCCN(CCO)CCCCCCCC(=O)OC(CCCCCCCC)CCCCCCCC (stereo not drawn) = 0.17

A = CCCCCCCCC(C)OC(=O)CCCCCCCN(CCO)CCCCCCCC(=O)OC(CCCCCCCC)CCCCCCCC (stereo not drawn)
B = CCCCCCCCC(CC)OC(=O)CCCCCCCN(CCO)CCCCCCCC(=O)OC(CCCCCCCC)CCCCCCCC (stereo not drawn)
*Q* // compare: A vs B , metric concentration at 48 h, want the smaller State your choice using its label.
*A* A
(A: 0.21, B: 0.37)

---

- assay_remarks: Residual lipid level in liver of rats (UPLC-MS quantification)
- Format: in vivo
- run_parameters: rat, liver, iv, 0.2 mg/kg, 0.2 mpk, 2 h
- Experimental: To pre-weighed tissues, Milli-Q water was added (900 μL water per 100 mg tissue). Tissues were homogenized using an Omni probe homogenizer until uniform. 50 μL of samples and matrix calibration standards were aliquoted into a 96-well plate. […] The expression of hEPO in rats intravenously administered a nanoparticle composition at a dose of 0.2 mpk or 2.0 mpk was measured at 6 hours. […] Liver and spleen levels represent the average values calculated for 3 rats in each group. […]
quantity_measured: concentration at 2 h (ng/g)

1 = CCCCCC=CCC=CCCCCCCCCC(CCCCCCCCC=CCC=CCCCCC)OC(=O)CCCN(C)C (centres unmarked) [MC3, reference compound]
2 = CCCCCCCCCCCOC(=O)CCCCCN(CCO)CCCCCCCC(=O)OC(CCCCCCCC)CCCCCCCC [Compound 25]
*Q* Returns: the argument ( 1 or 2 ) having the larger concentration at 2 h. Answer = label.
*A* 1
(1: 26000 ng/g, 2: 11700 ng/g)
